- experimental_details: activity coefficient (dimensionless); of the first substance listed, at infinite dilution; xn = mol fraction of the nth substance listed
- study_conditions: 303.15 K; Liquid; dilutor; x1 = 0
Assign activity coefficient to each entry below.
Lab note: record just the number, no unit beside it.

Which activity coefficient value is on record for CC(C)=O [acetone] + CCCCCC[n+]1ccn(C)c1.O=S(=O)([N-]S(=O)(=O)C(F)(F)F)C(F)(F)F ?
0.31

Which activity coefficient value is on record for CCCCCCC [heptane] + CCCC[N+]1(C)CCCC1.O=S(=O)([N-]S(=O)(=O)C(F)(F)F)C(F)(F)F ?
20.7

Which activity coefficient value is on record for C=CCCCCC [1-heptene] + CCCC[N+]1(C)CCCC1.O=S(=O)([N-]S(=O)(=O)C(F)(F)F)C(F)(F)F ?
10.4

Which activity coefficient value is on record for C=CCCC [1-pentene] + CCCCCCCCn1cc[n+](C)c1.O=S(=O)([N-]S(=O)(=O)C(F)(F)F)C(F)(F)F ?
2.54

Which activity coefficient value is on record for CCCC(C)=O [pentan-2-one] + CCCC[N+]1(C)CCCC1.O=S(=O)([N-]S(=O)(=O)C(F)(F)F)C(F)(F)F ?
0.63

Which activity coefficient value is on record for CCCCCC [hexane] + CCCCCCCCn1cc[n+](C)c1.O=S(=O)([N-]S(=O)(=O)C(F)(F)F)C(F)(F)F ?
5.44

Which activity coefficient value is on record for C=CCCCC [hex-1-ene] + CCCCCCCCn1cc[n+](C)c1.O=S(=O)([N-]S(=O)(=O)C(F)(F)F)C(F)(F)F ?
3.33

* * *

Assign activity coefficient to each entry below.
- experimental_details: activity coefficient (dimensionless); of the first substance listed, at infinite dilution; xn = mol fraction of the nth substance listed
- study_conditions: 313.15 K; Liquid; dilutor; x1 = 0
Lab note: record just the number, no unit beside it.

Which activity coefficient value is on record for CCCCCC [hexane] + CCCC[N+]1(C)CCCC1.O=S(=O)([N-]S(=O)(=O)C(F)(F)F)C(F)(F)F ?
13.3

Which activity coefficient value is on record for C=CCCCC [hex-1-ene] + CCCC[N+]1(C)CCCC1.O=S(=O)([N-]S(=O)(=O)C(F)(F)F)C(F)(F)F ?
6.92

Which activity coefficient value is on record for C=CCCC [1-pentene] + CCCC[N+]1(C)CCCC1.O=S(=O)([N-]S(=O)(=O)C(F)(F)F)C(F)(F)F ?
4.91

Which activity coefficient value is on record for CCC(C)=O [butanone] + CCCC[N+]1(C)CCCC1.O=S(=O)([N-]S(=O)(=O)C(F)(F)F)C(F)(F)F ?
0.53

Which activity coefficient value is on record for C=CCCCCCC [oct-1-ene] + CCCC[N+]1(C)CCCC1.O=S(=O)([N-]S(=O)(=O)C(F)(F)F)C(F)(F)F ?
13.9

Which activity coefficient value is on record for C1CCCCC1 [cyclohexane] + CCCCCC[n+]1ccn(C)c1.O=S(=O)([N-]S(=O)(=O)C(F)(F)F)C(F)(F)F ?
5.01

Which activity coefficient value is on record for O [water] + CCCCCCCCn1cc[n+](C)c1.O=S(=O)([N-]S(=O)(=O)C(F)(F)F)C(F)(F)F ?
3.51

* * *

- experimental_details: activity coefficient (dimensionless); of the first substance listed, at infinite dilution; xn = mol fraction of the nth substance listed
- study_conditions: 303.15 K; Liquid; Chromatography; x1 = 0
measurement_label: activity coefficient

Which activity coefficient value is on record for CCOC(C)(C)C [2-ethoxy-2-methylpropane] + CCCCCC[n+]1ccn(C)c1.O=S(=O)([N-]S(=O)(=O)C(F)(F)F)C(F)(F)F ?
2.69

Which activity coefficient value is on record for CCO [ethanol] + CCCCCC[n+]1ccn(C)c1.O=S(=O)([N-]S(=O)(=O)C(F)(F)F)C(F)(F)F ?
1.6

Which activity coefficient value is on record for CO [methanol] + CCCCCCCCn1cc[n+](C)c1.O=S(=O)([N-]S(=O)(=O)C(F)(F)F)C(F)(F)F ?
1.23

Which activity coefficient value is on record for Cc1ccc(C)cc1 [1,4-dimethylbenzene] + CCCCCCCCn1cc[n+](C)c1.O=S(=O)([N-]S(=O)(=O)C(F)(F)F)C(F)(F)F ?
1.11

Which activity coefficient value is on record for CCCC(C)=O [pentan-2-one] + CCCCCC[n+]1ccn(C)c1.O=S(=O)([N-]S(=O)(=O)C(F)(F)F)C(F)(F)F ?
0.51

Which activity coefficient value is on record for CCC(C)(C)OC [2-methoxy-2-methylbutane] + CCCCCC[n+]1ccn(C)c1.O=S(=O)([N-]S(=O)(=O)C(F)(F)F)C(F)(F)F ?
1.83

Which activity coefficient value is on record for C=CCCCC [hex-1-ene] + CCCCCCCCn1cc[n+](C)c1.O=S(=O)([N-]S(=O)(=O)C(F)(F)F)C(F)(F)F ?
3.29

Which activity coefficient value is on record for C=CCCCC [hex-1-ene] + CCCCCC[n+]1ccn(C)c1.O=S(=O)([N-]S(=O)(=O)C(F)(F)F)C(F)(F)F ?
4.71

Which activity coefficient value is on record for CCCO [propan-1-ol] + CCCCCCCCn1cc[n+](C)c1.O=S(=O)([N-]S(=O)(=O)C(F)(F)F)C(F)(F)F ?
1.67

Which activity coefficient value is on record for CCCCCC [hexane] + CCCCCCCCn1cc[n+](C)c1.O=S(=O)([N-]S(=O)(=O)C(F)(F)F)C(F)(F)F ?
5.32

Which activity coefficient value is on record for C=CCCCCCC [oct-1-ene] + CCCCCC[n+]1ccn(C)c1.O=S(=O)([N-]S(=O)(=O)C(F)(F)F)C(F)(F)F ?
8.81

Which activity coefficient value is on record for Cc1ccccc1 [toluene] + CCCCCC[n+]1ccn(C)c1.O=S(=O)([N-]S(=O)(=O)C(F)(F)F)C(F)(F)F ?
1.01

Which activity coefficient value is on record for CC(C)O [propan-2-ol] + CCCCCC[n+]1ccn(C)c1.O=S(=O)([N-]S(=O)(=O)C(F)(F)F)C(F)(F)F ?
1.71

Which activity coefficient value is on record for CCC(C)=O [butanone] + CCCCCC[n+]1ccn(C)c1.O=S(=O)([N-]S(=O)(=O)C(F)(F)F)C(F)(F)F ?
0.41

* * *

- experimental_details: activity coefficient (dimensionless); of the first substance listed, at infinite dilution; xn = mol fraction of the nth substance listed
- study_conditions: 323.15 K; Liquid; Chromatography; x1 = 0
measurement_label: activity coefficient
Lab note: record just the number, no unit beside it.

Which activity coefficient value is on record for C=CCCC [1-pentene] + CCCCCCCCn1cc[n+](C)c1.O=S(=O)([N-]S(=O)(=O)C(F)(F)F)C(F)(F)F ?
2.46

Which activity coefficient value is on record for Cc1ccccc1C [1,2-dimethylbenzene] + CCCCCCCCn1cc[n+](C)c1.O=S(=O)([N-]S(=O)(=O)C(F)(F)F)C(F)(F)F ?
1.03

Which activity coefficient value is on record for Cc1ccc(C)cc1 [1,4-dimethylbenzene] + CCCCCCCCn1cc[n+](C)c1.O=S(=O)([N-]S(=O)(=O)C(F)(F)F)C(F)(F)F ?
1.16

Which activity coefficient value is on record for CCO [ethanol] + CCCCCC[n+]1ccn(C)c1.O=S(=O)([N-]S(=O)(=O)C(F)(F)F)C(F)(F)F ?
1.36

Which activity coefficient value is on record for CO [methanol] + CCCCCCCCn1cc[n+](C)c1.O=S(=O)([N-]S(=O)(=O)C(F)(F)F)C(F)(F)F ?
1.03

Which activity coefficient value is on record for CO [methanol] + CCCCCC[n+]1ccn(C)c1.O=S(=O)([N-]S(=O)(=O)C(F)(F)F)C(F)(F)F ?
1.1

Which activity coefficient value is on record for CC(C)OC(C)C [diisopropyl ether] + CCCCCC[n+]1ccn(C)c1.O=S(=O)([N-]S(=O)(=O)C(F)(F)F)C(F)(F)F ?
2.85

Which activity coefficient value is on record for Cc1ccc(C)cc1 [1,4-dimethylbenzene] + CCCCCC[n+]1ccn(C)c1.O=S(=O)([N-]S(=O)(=O)C(F)(F)F)C(F)(F)F ?
1.48

Which activity coefficient value is on record for CCCCC [pentane] + CCCCCC[n+]1ccn(C)c1.O=S(=O)([N-]S(=O)(=O)C(F)(F)F)C(F)(F)F ?
5.65

Which activity coefficient value is on record for C=CCCCC [hex-1-ene] + CCCCCC[n+]1ccn(C)c1.O=S(=O)([N-]S(=O)(=O)C(F)(F)F)C(F)(F)F ?
4.48

Which activity coefficient value is on record for C=CCCCCC [1-heptene] + CCCCCC[n+]1ccn(C)c1.O=S(=O)([N-]S(=O)(=O)C(F)(F)F)C(F)(F)F ?
6.09

Which activity coefficient value is on record for CCCO [propan-1-ol] + CCCCCCCCn1cc[n+](C)c1.O=S(=O)([N-]S(=O)(=O)C(F)(F)F)C(F)(F)F ?
1.35

Which activity coefficient value is on record for Cc1cccc(C)c1 [1,3-dimethylbenzene] + CCCCCC[n+]1ccn(C)c1.O=S(=O)([N-]S(=O)(=O)C(F)(F)F)C(F)(F)F ?
1.46

Which activity coefficient value is on record for CCC(C)(C)OC [2-methoxy-2-methylbutane] + CCCCCC[n+]1ccn(C)c1.O=S(=O)([N-]S(=O)(=O)C(F)(F)F)C(F)(F)F ?
1.94

Which activity coefficient value is on record for Cc1ccccc1 [toluene] + CCCCCC[n+]1ccn(C)c1.O=S(=O)([N-]S(=O)(=O)C(F)(F)F)C(F)(F)F ?
1.05

Which activity coefficient value is on record for CC(C)O [propan-2-ol] + CCCCCC[n+]1ccn(C)c1.O=S(=O)([N-]S(=O)(=O)C(F)(F)F)C(F)(F)F ?
1.44

Which activity coefficient value is on record for CCCCCC [hexane] + CCCCCC[n+]1ccn(C)c1.O=S(=O)([N-]S(=O)(=O)C(F)(F)F)C(F)(F)F ?
7.48

Which activity coefficient value is on record for CCOC(C)(C)C [2-ethoxy-2-methylpropane] + CCCCCC[n+]1ccn(C)c1.O=S(=O)([N-]S(=O)(=O)C(F)(F)F)C(F)(F)F ?
2.76

Which activity coefficient value is on record for CCCCCCCC [octane] + CCCCCC[n+]1ccn(C)c1.O=S(=O)([N-]S(=O)(=O)C(F)(F)F)C(F)(F)F ?
13.5

Which activity coefficient value is on record for C1CCOC1 [tetrahydrofuran] + CCCCCC[n+]1ccn(C)c1.O=S(=O)([N-]S(=O)(=O)C(F)(F)F)C(F)(F)F ?
0.53

Which activity coefficient value is on record for Cc1cccc(C)c1 [1,3-dimethylbenzene] + CCCCCCCCn1cc[n+](C)c1.O=S(=O)([N-]S(=O)(=O)C(F)(F)F)C(F)(F)F ?
1.17

Which activity coefficient value is on record for C1CCCCC1 [cyclohexane] + CCCCCCCCn1cc[n+](C)c1.O=S(=O)([N-]S(=O)(=O)C(F)(F)F)C(F)(F)F ?
3.36

Which activity coefficient value is on record for C=CCCCC [hex-1-ene] + CCCCCCCCn1cc[n+](C)c1.O=S(=O)([N-]S(=O)(=O)C(F)(F)F)C(F)(F)F ?
3.18

Which activity coefficient value is on record for CCCO [propan-1-ol] + CCCCCC[n+]1ccn(C)c1.O=S(=O)([N-]S(=O)(=O)C(F)(F)F)C(F)(F)F ?
1.57

Which activity coefficient value is on record for CCCCCCC [heptane] + CCCCCC[n+]1ccn(C)c1.O=S(=O)([N-]S(=O)(=O)C(F)(F)F)C(F)(F)F ?
10

Which activity coefficient value is on record for CCCC(C)=O [pentan-2-one] + CCCCCC[n+]1ccn(C)c1.O=S(=O)([N-]S(=O)(=O)C(F)(F)F)C(F)(F)F ?
0.54

Which activity coefficient value is on record for C1=CCCCC1 [cyclohexene] + CCCCCCCCn1cc[n+](C)c1.O=S(=O)([N-]S(=O)(=O)C(F)(F)F)C(F)(F)F ?
2.31

Which activity coefficient value is on record for C=CCCCCCC [oct-1-ene] + CCCCCC[n+]1ccn(C)c1.O=S(=O)([N-]S(=O)(=O)C(F)(F)F)C(F)(F)F ?
8.18
